# reported pEC50; entries follow
target: Streptokinase A (Streptococcus pyogenes serotype M1); test: viability-normalized secreted streptokinase activity reduction – plasminogen activation absorbance, OD405, dose response (AID 1914)
Sequence (P10520 whole entry): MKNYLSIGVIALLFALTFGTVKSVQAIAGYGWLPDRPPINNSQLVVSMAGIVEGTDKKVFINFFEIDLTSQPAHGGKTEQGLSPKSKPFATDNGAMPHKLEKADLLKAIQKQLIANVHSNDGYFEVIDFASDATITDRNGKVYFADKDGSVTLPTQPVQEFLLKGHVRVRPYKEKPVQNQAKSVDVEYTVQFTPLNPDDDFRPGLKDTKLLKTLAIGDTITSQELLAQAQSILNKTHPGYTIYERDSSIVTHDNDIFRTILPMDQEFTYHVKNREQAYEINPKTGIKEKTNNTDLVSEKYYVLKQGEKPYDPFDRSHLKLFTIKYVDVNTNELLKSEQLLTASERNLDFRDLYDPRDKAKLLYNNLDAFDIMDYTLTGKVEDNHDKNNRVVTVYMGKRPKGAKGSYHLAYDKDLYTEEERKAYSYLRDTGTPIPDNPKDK
pEC50: −log10 of the molar value.

Solved entries:
compound=COc1cccc(-n2c(O)c3[nH][nH]c(C(=O)CN4C(=O)c5ccccc5C4=O)c-3c2=O)c1 experimental_endpoint=pEC50 measured="< 3.82"
compound="O=C1C([N+](=O)[O-])=CC(Cl)=CC1/C=N/NC(=O)C(O)(c1ccccc1)c1ccccc1 (centres undefined)" experimental_endpoint=pEC50 measured="< 3.82"
compound="CC(C)(C)C1CCC2=C(C#N)C(=N)C(C#N)(C#N)C(c3cccs3)C2C1 (centres undefined)" experimental_endpoint=pEC50 measured=4.59

Exercise: What does the data say about its pEC50? Entry: CC(C)CN1C(=O)/C(=N\NC(=O)c2cccc(S(=O)(=O)N3CCCCC3)c2)c2ccccc21
Solution: < 3.82

Exercise: What does the data say about its pEC50? Entry: CC(=N)C(C#N)C(=O)CSc1nc2scc(-c3ccccc3)c2c(=O)n1C (centres undefined)
Solution: < 3.82

Exercise: What does the data say about its pEC50? Entry: CCCCCCC(N=O)c1ccccn1 (centres undefined)
Solution: < 3.82

Exercise: What does the data say about its pEC50? Entry: Cc1ccc(C2C(C(=O)c3cc4ccccc4o3)C(=O)C(=O)N2c2cc(C)on2)cc1 (centres undefined)
Solution: 5.20

Exercise: What does the data say about its pEC50? Entry: O=c1ccc2[n+]([O-])c3ccccc3n(O)c-2c1 [10-hydroxy-5-oxidophenazin-5-ium-2-one]
Solution: < 3.82

Exercise: What does the data say about its pEC50? Entry: Oc1ccc(CN=Nc2ccc3ccccc3c2)c(O)c1
Solution: < 3.82
